Molecular target: recombinant human SAE enzyme (Homo sapiens)
Sequence (Q9UBT2 1-640): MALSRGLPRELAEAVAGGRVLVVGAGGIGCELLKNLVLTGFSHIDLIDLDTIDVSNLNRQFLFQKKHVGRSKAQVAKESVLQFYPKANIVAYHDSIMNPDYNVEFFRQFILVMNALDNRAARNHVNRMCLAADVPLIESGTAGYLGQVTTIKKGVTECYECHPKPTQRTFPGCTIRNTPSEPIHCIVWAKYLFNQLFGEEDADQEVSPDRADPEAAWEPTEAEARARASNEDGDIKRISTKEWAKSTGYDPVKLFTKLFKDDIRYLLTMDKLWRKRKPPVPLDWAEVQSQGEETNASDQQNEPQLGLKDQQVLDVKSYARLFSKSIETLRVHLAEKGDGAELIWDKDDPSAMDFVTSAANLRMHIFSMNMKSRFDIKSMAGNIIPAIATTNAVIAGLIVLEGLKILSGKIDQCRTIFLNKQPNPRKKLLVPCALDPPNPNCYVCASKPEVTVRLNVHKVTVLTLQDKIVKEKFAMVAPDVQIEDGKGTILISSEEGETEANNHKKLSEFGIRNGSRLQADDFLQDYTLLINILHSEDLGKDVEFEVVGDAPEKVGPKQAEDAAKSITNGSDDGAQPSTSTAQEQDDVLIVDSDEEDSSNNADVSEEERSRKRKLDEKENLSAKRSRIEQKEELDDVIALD
Sequence (Q9UBE0 1-346 partner): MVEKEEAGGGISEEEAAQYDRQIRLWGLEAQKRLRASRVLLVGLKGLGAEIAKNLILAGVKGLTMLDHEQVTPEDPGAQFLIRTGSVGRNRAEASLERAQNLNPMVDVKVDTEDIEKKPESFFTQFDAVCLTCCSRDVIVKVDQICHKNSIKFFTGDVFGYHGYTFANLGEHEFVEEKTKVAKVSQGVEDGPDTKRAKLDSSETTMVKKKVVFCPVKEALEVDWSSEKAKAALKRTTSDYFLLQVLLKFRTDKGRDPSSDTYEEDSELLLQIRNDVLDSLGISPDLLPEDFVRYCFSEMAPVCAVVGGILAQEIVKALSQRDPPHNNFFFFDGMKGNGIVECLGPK
Test: SAE HTRF Enzyme Assay
Assay type: biochemical
Conditions: compound concentration 0.111 μM; read-out: Percent Inhibition
Provide the recorded inhibition at 0.111 µM for the entries that follow.
Express the result in % but write the number alone.

Bench note: what inhibition at 0.111 µM did NS(=O)(=O)OC[C@H]1C[C@@H](Nc2ncncc2C(=O)c2ccn(Cc3cccc(OC(F)(F)F)c3)n2)[C@H](O)[C@@H]1O show? 100

Bench note: what inhibition at 0.111 µM did NS(=O)(=O)OC[C@H]1C[C@@H](Nc2ncncc2C(=O)c2ccn(Cc3cccc(Br)c3F)n2)[C@@H](F)[C@@H]1O show? 99

Bench note: what inhibition at 0.111 µM did C#Cc1cccc([C@@H](C)n2ccc(C(=O)c3cncnc3N[C@@H]3C[C@H](COS(N)(=O)=O)[C@@H](O)C3)n2)c1 (single isomer, unassigned) show? 61

Bench note: what inhibition at 0.111 µM did NS(=O)(=O)OC[C@H]1C[C@@H](Nc2ncncc2C(=O)c2ccn(Cc3ccc(Cl)o3)c2)[C@@H](F)[C@@H]1O show? 100

Bench note: what inhibition at 0.111 µM did CC(C)(O)c1cc(C(=O)c2cncnc2N[C@@H]2C[C@H](COS(N)(=O)=O)[C@@H](O)C2)nn1Cc1cccc(Br)c1 show? 99

Bench note: what inhibition at 0.111 µM did NS(=O)(=O)OC[C@H]1C[C@@H](Nc2ncncc2C(=O)c2ccn(Cc3ccc(Cl)c(Cl)c3)n2)[C@@H](F)[C@@H]1O show? 98

Bench note: what inhibition at 0.111 µM did CC(C)(O)C#CCn1ccc(C(=O)c2cncnc2N[C@@H]2C[C@H](COS(N)(=O)=O)[C@@H](O)C2)n1 show? 39

Bench note: what inhibition at 0.111 µM did NS(=O)(=O)OC[C@H]1C[C@@H](Nc2ncncc2C(=O)c2ccn(Cc3cccc(C(F)(F)F)c3)n2)[C@H](O)[C@@H]1O show? 98

Bench note: what inhibition at 0.111 µM did NS(=O)(=O)OC[C@H]1C[C@@H](Nc2ncncc2C(=O)c2ccn(Cc3cc4ccccc4s3)n2)C[C@@H]1O show? 98

Bench note: what inhibition at 0.111 µM did NS(=O)(=O)OC[C@H]1C[C@@H](Nc2ncncc2C(=O)c2ccn(Cc3ccccc3)n2)[C@H](O)[C@@H]1O show? 99

Bench note: what inhibition at 0.111 µM did Cc1cc(C(=O)c2cncnc2N[C@@H]2C[C@H](COS(N)(=O)=O)[C@@H](O)[C@@H]2F)cn1Cc1cccc(Br)c1 show? 100

Bench note: what inhibition at 0.111 µM did NS(=O)(=O)OC[C@H]1C[C@@H](Nc2ncncc2C(=O)c2ccn(Cc3cccc(OC(F)F)c3)n2)[C@H](O)[C@@H]1O show? 99

Bench note: what inhibition at 0.111 µM did NS(=O)(=O)OC[C@H]1C[C@@H](Nc2ncncc2C(=O)c2ccn(CC3=CCOCC3)c2)[C@@H](F)[C@@H]1O show? 89

Bench note: what inhibition at 0.111 µM did NS(=O)(=O)OC[C@H]1C[C@@H](Nc2ncncc2C(=O)c2ccn(Cc3csc4ccc(Cl)cc34)c2)C[C@@H]1O show? 98

Bench note: what inhibition at 0.111 µM did NS(=O)(=O)OC[C@H]1C[C@@H](Nc2ncncc2C(=O)c2ccn(Cc3ccc(F)c(Br)c3)c2)C[C@@H]1O show? 98

Bench note: what inhibition at 0.111 µM did NS(=O)(=O)OC[C@H]1C[C@@H](Nc2ncncc2C(=O)c2cc(C(F)(F)F)n(Cc3cccc(Cl)c3)n2)[C@@H](F)[C@@H]1O show? 94

Bench note: what inhibition at 0.111 µM did Cn1nc(Cn2ccc(C(=O)c3cncnc3N[C@@H]3C[C@H](COS(N)(=O)=O)[C@@H](O)C3)c2)cc1C(F)(F)F show? 99

Bench note: what inhibition at 0.111 µM did CC(C)(C)C#CCn1ccc(C(=O)c2cncnc2N[C@@H]2C[C@H](COS(N)(=O)=O)[C@@H](O)[C@@H]2F)c1 show? 90

Bench note: what inhibition at 0.111 µM did NS(=O)(=O)OC[C@H]1C[C@@H](Nc2ccncc2C(=O)c2ccn(Cc3cccc(Cl)c3)n2)[C@H](O)[C@@H]1O show? 98

Bench note: what inhibition at 0.111 µM did Cc1ccn(CCn2ccc(C(=O)c3cncnc3N[C@@H]3C[C@H](COS(N)(=O)=O)[C@@H](O)[C@H]3O)n2)n1 show? 80

Bench note: what inhibition at 0.111 µM did NS(=O)(=O)OC[C@H]1C[C@@H](Nc2ncncc2C(=O)c2ccn(Cc3ccccc3)c2)[C@H](O)[C@@H]1O show? 98

###

target: recombinant human SAE enzyme (Homo sapiens, UniProt Q9UBT2); assay: SAE HTRF Enzyme Assay; format: biochemical; settings: compound concentration 0.111 μM; read-out: Percent Inhibition
# if value of inhibition at 0.111 µM reaches 60%, tag Met; if it stays below, tag Not met

Could you tell me if the measured inhibition at 0.111 µM of NS(=O)(=O)OC[C@H]1C[C@@H](Nc2ncncc2C(=O)c2ccn(CC#Cc3ccco3)n2)C[C@@H]1O reaches 60% or more? Met

Could you tell me if the measured inhibition at 0.111 µM of C#Cc1cccc(Cn2nc(C(=O)c3cncnc3N[C@@H]3C[C@H](COS(N)(=O)=O)[C@@H](O)C3)cc2C)c1 reaches 60% or more? Met

Could you tell me if the measured inhibition at 0.111 µM of COc1cccc(Cn2ccc(C(=O)c3cncnc3N[C@@H]3C[C@H](COS(N)(=O)=O)[C@@H](O)[C@H]3O)n2)c1 reaches 60% or more? Met

Could you tell me if the measured inhibition at 0.111 µM of NS(=O)(=O)OC[C@H]1C[C@@H](Nc2ncncc2C(=O)c2ccn(Cc3cccc(C(F)(F)F)c3)n2)[C@@H](F)[C@@H]1O reaches 60% or more? Met

Could you tell me if the measured inhibition at 0.111 µM of NS(=O)(=O)OC[C@H]1C[C@@H](Nc2ncncc2C(=O)c2ccn(Cc3cccc(C4(O)COC4)n3)n2)C[C@@H]1O reaches 60% or more? Not met

Could you tell me if the measured inhibition at 0.111 µM of CC(C)n1ccc(C(=O)c2cncnc2N[C@@H]2C[C@H](COS(N)(=O)=O)[C@@H](O)[C@H]2O)n1 reaches 60% or more? Not met

Could you tell me if the measured inhibition at 0.111 µM of Cc1cc(C(=O)c2cncnc2N[C@@H]2C[C@H](COS(N)(=O)=O)[C@@H](O)C2)nn1Cc1cccc(I)c1 reaches 60% or more? Met

Could you tell me if the measured inhibition at 0.111 µM of NS(=O)(=O)OC[C@H]1C[C@@H](Nc2ncncc2C(=O)c2ccn(Cc3ccccc3F)n2)[C@H](O)[C@@H]1O reaches 60% or more? Met

Could you tell me if the measured inhibition at 0.111 µM of NS(=O)(=O)OC[C@H]1C[C@@H](Nc2ncncc2C(=O)c2cc(Cl)n(Cc3cccc(C(F)(F)F)c3)c2)[C@@H](F)[C@@H]1O reaches 60% or more? Met

Could you tell me if the measured inhibition at 0.111 µM of NS(=O)(=O)OC[C@H]1C[C@@H](Nc2ncncc2C(=O)c2ccn(Cc3ccc(F)cc3C(F)(F)F)n2)C[C@@H]1O reaches 60% or more? Met

Could you tell me if the measured inhibition at 0.111 µM of NS(=O)(=O)OC[C@H]1C[C@@H](Nc2ccncc2C(=O)c2ccn(Cc3cccc(OC(F)F)c3)n2)C[C@@H]1O reaches 60% or more? Met

Could you tell me if the measured inhibition at 0.111 µM of NS(=O)(=O)OC[C@H]1C[C@@H](Nc2ncncc2C(=O)c2ccn(CC#CC3(O)CCOCC3)n2)C[C@@H]1O reaches 60% or more? Not met
